Record form. Attribute: self-cleavage. Fill in for each entry.
B1: Osa-1-4 twister ribozyme (parent)
chain: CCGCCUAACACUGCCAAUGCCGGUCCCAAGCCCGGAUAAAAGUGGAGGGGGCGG

variants of: B1; experiment: self-cleavage, relative activity (ratio to wild type); higher = more cleavage; co-transcriptional

{"sequence code": "CCGCCUCACACUGCCAAUGCCGGUCUCAAGCCCGGAUAAAAGUGGAGGGGGCGG [A7C C26U]", "measured attribute": "self-cleavage", "result": 0.05}

Please report self-cleavage for every entry that follows.
1. CCGCCUAACACUGCCAAUGCCGGUCACAAGCCAGGAUAAAAGUGGAGGGGGCGG [C26A C33A]
2. CCGCCUAACACUGCCAAUACCGGUCCCAAGCCCGGAUAAAAGUGGCGGGGGCGG [A46C G19A]

(A)
0.05
0.05

The origin of these recorded values is the RNAGym collection of RNA variant scans (doi:10.1002/anie.201605470).
